# System: ATP;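 note: ATP exposure 15 min at 22 °C before imaging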
# Measurement Notes: switch fluorescence ratio, 500 uM ATP over buffer (Cy3 cluster intensity, sum of 5 cycles each) (fold (ratio)); higher = stronger signal-on switching upon ATP binding; sequences stand for … in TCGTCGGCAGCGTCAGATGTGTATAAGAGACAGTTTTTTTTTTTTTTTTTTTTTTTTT…TC
# Cond: aptamer strand: ATP DNA aptamer (quencher-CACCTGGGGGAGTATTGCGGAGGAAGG + anchor), 100 nM annealed; ATP concentration: 500 uM
Assay Metric: switch fluorescence ratio
Just the number, please, no unit after it.

These recorded examples may help you get a feel for the data.
TATGTGAGGG
0.988
ACTGGACTGT
1.18

// moving on: another record for switch fluorescence ratio
Lab note: TATGGGGTAT gave switch fluorescence ratio of 0.986

###

Readings of switch fluorescence ratio for the listed sequences
# System: ATP;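 note: ATP exposure 15 min at 22 °C before imaging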
# Measurement Notes: switch fluorescence ratio, 500 uM ATP over buffer (Cy3 cluster intensity, sum of 5 cycles each) (fold (ratio)); higher = stronger signal-on switching upon ATP binding; sequences stand for … in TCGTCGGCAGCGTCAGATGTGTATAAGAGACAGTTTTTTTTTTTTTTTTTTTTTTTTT…TC
# Cond: aptamer strand: ATP DNA aptamer (quencher-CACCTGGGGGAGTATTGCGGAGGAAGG + anchor), 100 nM annealed; ATP concentration: 500 uM
Just the number, please, no unit after it.

These recorded examples may help you get a feel for the data.
GACGTAGTTT
1.01
GCTGCGCCGT
1
TCTTATAATT
1.01
TAGAATCCG
1

// moving on: another record for switch fluorescence ratio
Reported switch fluorescence ratio (ATP) for entry CAATTGGCGT is 0.967

###

# Test system: ATP;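 note: ATP exposure 15 min at 22 °C before imaging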
# Measurement Notes: switch fluorescence ratio, 500 uM ATP over buffer (Cy3 cluster intensity, sum of 5 cycles each) (fold (ratio)); higher = stronger signal-on switching upon ATP binding; sequences stand for … in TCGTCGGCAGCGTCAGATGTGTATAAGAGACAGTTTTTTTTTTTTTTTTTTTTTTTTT…TC
# Cond: aptamer strand: ATP DNA aptamer (quencher-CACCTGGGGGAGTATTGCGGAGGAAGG + anchor), 100 nM annealed; ATP concentration: 500 uM
Readings of switch fluorescence ratio for the listed sequences
Just the number, please, no unit after it.

CAGGGGGGGC
1.01

Lab note: CCTTATGGGG gave switch fluorescence ratio of 1

Lab note: GAACTTTCTG gave switch fluorescence ratio of 1.01

Lab note: GGGTTGGGGA gave switch fluorescence ratio of 1.01

Lab note: TTTAACAGTT gave switch fluorescence ratio of 1.01

Lab note: TATGATGTTA gave switch fluorescence ratio of 0.993

###

# Test system: ATP;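 note: ATP exposure 15 min at 22 °C before imaging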
# Measurement Notes: switch fluorescence ratio, 500 uM ATP over buffer (Cy3 cluster intensity, sum of 5 cycles each) (fold (ratio)); higher = stronger signal-on switching upon ATP binding; sequences stand for … in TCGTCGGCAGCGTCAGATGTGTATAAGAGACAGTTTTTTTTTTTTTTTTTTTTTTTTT…TC
# Cond: aptamer strand: ATP DNA aptamer (quencher-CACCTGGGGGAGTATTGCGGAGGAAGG + anchor), 100 nM annealed; ATP concentration: 500 uM
Assay Metric: switch fluorescence ratio

These recorded examples may help you get a feel for the data.
GTATTTCGGC
0.994
AGGCCTCGGG
1.02
GGGCTATGTC
1.01
CTGGACAGTG
0.956
ATTGCCGGAG
0.999

Lab note: GCACTTTACG gave switch fluorescence ratio of 1.28

Lab note: TTGAATGAAT gave switch fluorescence ratio of 1.01

Lab note: TAGGGCATTG gave switch fluorescence ratio of 1.01

Lab note: TGTGTGGTGT gave switch fluorescence ratio of 0.993

Lab note: ATAGTATCTT gave switch fluorescence ratio of 1

Lab note: TCGGGGTTCG gave switch fluorescence ratio of 0.992

Lab note: TCGTGCGGGG gave switch fluorescence ratio of 0.969

###

# System: ATP;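 note: ATP exposure 15 min at 22 °C before imaging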
# Measurement Notes: switch fluorescence ratio, 500 uM ATP over buffer (Cy3 cluster intensity, sum of 5 cycles each) (fold (ratio)); higher = stronger signal-on switching upon ATP binding; sequences stand for … in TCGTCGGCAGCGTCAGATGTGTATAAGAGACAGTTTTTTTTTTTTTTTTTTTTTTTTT…TC
# Cond: aptamer strand: ATP DNA aptamer (quencher-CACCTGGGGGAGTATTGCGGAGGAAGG + anchor), 100 nM annealed; ATP concentration: 500 uM
Readings of switch fluorescence ratio for the listed sequences
Just the number, please, no unit after it.

These recorded examples may help you get a feel for the data.
AGGCAATGTC
1.48
CCTGGCTGAT
1.11
GGGGGCATAA
1.03
ATCACTTTAT
1.38

Lab note: GGGCGAGAGG gave switch fluorescence ratio of 1.02

Lab note: TAGGGACTGG gave switch fluorescence ratio of 0.996

Lab note: ATGTTCGACA gave switch fluorescence ratio of 0.965

###

# Tested on: ATP;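 note: ATP exposure 15 min at 22 °C before imaging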
# Measurement Notes: switch fluorescence ratio, 500 uM ATP over buffer (Cy3 cluster intensity, sum of 5 cycles each) (fold (ratio)); higher = stronger signal-on switching upon ATP binding; sequences stand for … in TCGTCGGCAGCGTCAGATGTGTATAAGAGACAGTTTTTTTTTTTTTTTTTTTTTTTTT…TC
# Cond: aptamer strand: ATP DNA aptamer (quencher-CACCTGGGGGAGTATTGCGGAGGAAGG + anchor), 100 nM annealed; ATP concentration: 500 uM
Readings of switch fluorescence ratio for the listed sequences
Just the number, please, no unit after it.

These recorded examples may help you get a feel for the data.
GGGAGTCAGC
1.01
GGATAAAGAC
1.37
CACGGGATGG
1.05
GACAGTCGGG
1.01
ATTGAATTTG
1
TTTTACTATG
0.989
ATGATTTAGG
1
AATGTGTTGG
0.984
AGGAGTTTTT
0.98
TAATTTGTCA
1.01

Lab note: TAAATTTGAG gave switch fluorescence ratio of 0.991

Lab note: GGAATCTAAC gave switch fluorescence ratio of 1.03

Lab note: ACGGTGTATT gave switch fluorescence ratio of 0.998

Lab note: ATCGGAAAG gave switch fluorescence ratio of 1.65

Lab note: CGATTCAAGG gave switch fluorescence ratio of 1.03

Lab note: TTATAATGTG gave switch fluorescence ratio of 1.01

Lab note: TAATCGTGGG gave switch fluorescence ratio of 1.02

Lab note: AGTAATCGCT gave switch fluorescence ratio of 0.985

Lab note: TGTTAGGTGA gave switch fluorescence ratio of 1.07

###

Readings of switch fluorescence ratio for the listed sequences
# System: ATP;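 note: ATP exposure 15 min at 22 °C before imaging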
# Measurement Notes: switch fluorescence ratio, 500 uM ATP over buffer (Cy3 cluster intensity, sum of 5 cycles each) (fold (ratio)); higher = stronger signal-on switching upon ATP binding; sequences stand for … in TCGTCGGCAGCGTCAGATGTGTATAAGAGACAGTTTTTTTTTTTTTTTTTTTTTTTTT…TC
# Cond: aptamer strand: ATP DNA aptamer (quencher-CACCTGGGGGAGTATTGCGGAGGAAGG + anchor), 100 nM annealed; ATP concentration: 500 uM
Just the number, please, no unit after it.

These recorded examples may help you get a feel for the data.
GGCTGATACG
1.04
AAGGTTTTTG
1
AGCCTTTCGT
1.01
TTTTTTCCG
1.08
GTATCAGGGC
1.04
AGGGTTTAAA
1
GAACCTGTGT
0.993
CGGATGTTAC
1.17

Reported switch fluorescence ratio (ATP) for entry TCAGAGCATC is 1.96

Reported switch fluorescence ratio (ATP) for entry GGGTTGTTGC is 1

Reported switch fluorescence ratio (ATP) for entry TTGGTAATAG is 1.03

Reported switch fluorescence ratio (ATP) for entry AAAGAGAGAC is 1.01

###

# Tested on: ATP;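 note: ATP exposure 15 min at 22 °C before imaging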
# Measurement Notes: switch fluorescence ratio, 500 uM ATP over buffer (Cy3 cluster intensity, sum of 5 cycles each) (fold (ratio)); higher = stronger signal-on switching upon ATP binding; sequences stand for … in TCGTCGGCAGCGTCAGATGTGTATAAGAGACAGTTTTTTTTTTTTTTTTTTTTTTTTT…TC
# Cond: aptamer strand: ATP DNA aptamer (quencher-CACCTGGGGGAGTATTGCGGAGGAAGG + anchor), 100 nM annealed; ATP concentration: 500 uM
# binarize switch fluorescence ratio: threshold 1 inclusive, high side condition met, low side condition not met

Example cases with answers are listed next.
ACCGGTGCTT
condition met
CTGTAGGTGT
condition met
TCACAATGCT
condition met
TCACACGGGG
condition met
TACGGGCGGG
condition met
TTTAATTTTC
condition met

Ask | Does TAAGGGTCCC have a reported switch fluorescence ratio of at least 1?
Reply | condition not met

###

# Tested on: ATP;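 note: ATP exposure 15 min at 22 °C before imaging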
# Measurement Notes: switch fluorescence ratio, 500 uM ATP over buffer (Cy3 cluster intensity, sum of 5 cycles each) (fold (ratio)); higher = stronger signal-on switching upon ATP binding; sequences stand for … in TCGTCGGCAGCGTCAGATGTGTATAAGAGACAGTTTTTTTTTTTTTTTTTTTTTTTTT…TC
# Cond: aptamer strand: ATP DNA aptamer (quencher-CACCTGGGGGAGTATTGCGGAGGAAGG + anchor), 100 nM annealed; ATP concentration: 500 uM
Readings of switch fluorescence ratio for the listed sequences
Just the number, please, no unit after it.

TACCGGGCTT
0.978
AGGGAGGAGT
0.988
ACCAAACCGG
1.04

Reported switch fluorescence ratio (ATP) for entry GTGGGTAAAG is 0.975

Taken from the supplement of paper PMC10126150.
